List of IC50 values.
- Test system: A375
- assay-notes: MTT assay, cytotoxicity
- Format: cell-based
- experimental-setup: Homo sapiens, A-375, 72 h; read-out: IC50 (µM) after 72 h Drug Treatment, A375

CN(C)c1ccc(C=C2C(=O)Nc3ncccc32)cc1 (mixture of isomers) ... > 100 µM

Q: Form field: reported IC50 of O=C1Nc2ncccc2/C1=C\c1ccccn1 [(E)-2f]
A: 14 µM

---

List of IC50 values.
- study-target: human recombinant GSK3β (Homo sapiens, UniProt P49841)
- Construct: purchased Promega Corporation, Madison, WI, USA (GSK3β Kinase Enzyme System)
- Sequence (P49841 whole entry): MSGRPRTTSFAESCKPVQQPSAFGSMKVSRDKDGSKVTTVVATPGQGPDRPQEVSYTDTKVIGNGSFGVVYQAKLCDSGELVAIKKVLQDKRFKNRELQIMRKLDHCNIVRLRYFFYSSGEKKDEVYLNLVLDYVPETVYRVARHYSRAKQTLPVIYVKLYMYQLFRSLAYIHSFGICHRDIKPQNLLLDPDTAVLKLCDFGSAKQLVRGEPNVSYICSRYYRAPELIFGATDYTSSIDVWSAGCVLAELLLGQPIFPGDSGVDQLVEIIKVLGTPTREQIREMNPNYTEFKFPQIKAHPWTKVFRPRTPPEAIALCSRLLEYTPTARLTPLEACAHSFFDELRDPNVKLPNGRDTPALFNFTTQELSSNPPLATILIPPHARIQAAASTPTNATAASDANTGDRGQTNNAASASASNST
- assay-notes: GSK3β inhibition assay (GSK3β Kinase Enzyme System, ADP-Glo Kinase Assay)
- Format: biochemical
- experimental-setup: read-out: IC50 (µM) GSK3β

Below, 4 compounds whose answers are already recorded.
O=C1Nc2ccc(Cl)cc2/C1=C\c1ccccn1 [(E)-2b] ... > 10 µM
O=C1Nc2ccc(F)cc2/C1=C\c1ccccn1 [(E)-2d] ... > 10 µM
O=C1Nc2cc(F)ccc2/C1=C\c1ccccn1 [(E)-2e] ... > 10 µM
CN(C)c1ccnc(/C=C2/C(=O)Nc3ncccc32)c1 [(E)-3c] ... 3.2 µM

Now for the compound whose IC50 we want.
Q: Give human recombinant GSK3β (Homo sapiens, UniProt P49841) IC50 for O=C1Nc2cc(Cl)ccc2/C1=C\c1ccccn1 [(E)-2c]
A: > 10 µM

Origin of measurements: paper PMC9029746
